Measured values drawn from ChEMBL document CHEMBL1156833 for this set.

assay_comment: Half life in po dosed rat
Type: ADME, organism-based
cond: in vivo
measure: half-life (h)

[A] CC(C)(F)C[C@H](N[C@@H](c1ccc(-c2ccc([C@@H](O)C(F)F)cc2)cc1)C(F)(F)F)C(=O)NC1(C#N)CC1
[B] CC(C)(F)C[C@H](N[C@@H](c1ccc(-c2ccc([C@H](O)C(F)F)cc2)cc1)C(F)(F)F)C(=O)NC1(C#N)CC1
Exercise: A or B : whose half-life is greater? I would appreciate it if you answered with the label of your choice.
Solution: B

----------
Species on record: Homo sapiens
assay_comment: Selectivity ratio of IC50 for human cathepsin B to IC50 for humanized rabbit cathepsin K
measure: Ratio IC50

Some solved entries appear below for comparison.
{"compound": "CC(C)(F)C[C@H](N[C@@H](c1ccc(-c2ccc(C3(C(N)=O)CC3)cc2)cc1)C(F)(F)F)C(=O)NC1(C#N)CC1", "Ratio IC50": 1560}
{"compound": "CC(C)(F)C[C@H](N[C@@H](c1ccc(-c2ccc([C@H](O)C(F)F)cc2)cc1)C(F)(F)F)C(=O)NC1(C#N)CC1", "Ratio IC50": 1470}
{"compound": "CC(C)(F)C[C@H](N[C@@H](c1ccc(-c2ccc(C3(O)CC3)cc2)cc1)C(F)(F)F)C(=O)NC1(C#N)CC1", "Ratio IC50": 1420}
{"compound": "Cc1csc(-c2ccc([C@H](N[C@@H](CC(C)(C)F)C(=O)NC3(C#N)CC3)C(F)(F)F)cc2)n1", "Ratio IC50": 4040}
{"compound": "CC(C)(F)C[C@H](N[C@@H](c1ccc(-c2ccc(C(C)(C)O)cc2)cc1)C(F)(F)F)C(=O)NC1(C#N)CC1", "Ratio IC50": 2200}

[1] CC(C)(F)C[C@H](N[C@@H](c1ccc(-c2ccc3ncccc3c2)cc1)C(F)(F)F)C(=O)NC1(C#N)CC1
[2] C[C@H](C(N)=O)c1ccc(-c2ccc([C@H](N[C@@H](CC(C)(C)F)C(=O)NC3(C#N)CC3)C(F)(F)F)cc2)cc1
[3] CC(C)(F)C[C@H](N[C@@H](c1ccc(-c2ccc(S(C)(=O)=O)nc2)cc1)C(F)(F)F)C(=O)NC1(C#N)CC1
[4] CC(C)(F)C[C@H](N[C@@H](c1ccc(-c2ccc(S(C)(=O)=O)cc2)cc1)C(F)(F)F)C(=O)NC1(C#N)CC1 [ODANACATIB]
Exercise: # ascending order, key=Ratio IC50 A complete answer lists every label in the requested sequence.
Solution: 3, 2, 1, 4
(3: 725, 2: 1440, 1: 3000, 4: 5170)

----------
measured_target: Cathepsin K (Homo sapiens, UniProt P43235)
pIC50: −log10 of the molar value.
measure: pIC50

{"compound_structure_string": "CC(C)(F)C[C@H](N[C@@H](c1ccc(-c2ccc(C3(C(N)=O)CC3)cn2)cc1)C(F)(F)F)C(=O)NC1(C#N)CC1", "pIC50": 9.30}

[a] CC(C)(F)C[C@H](N[C@@H](c1ccc(-c2ccc(C(C)(C)O)cc2)cc1)C(F)(F)F)C(=O)NC1(C#N)CC1
[b] CC(C)(F)C[C@H](N[C@@H](c1ccc(-c2ccc([C@@H](O)C(F)F)cc2)cc1)C(F)(F)F)C(=O)NC1(C#N)CC1
Exercise: Lowest pIC50? choose a or b I would appreciate it if you answered with the label of your choice.
Solution: b
(b: 9.40, a: 9.70)

[1] CC(C)(F)C[C@H](N[C@@H](c1ccc(-c2ccc(C3(O)CC3)cn2)cc1)C(F)(F)F)C(=O)NC1(C#N)CC1
[2] CC(C)(F)C[C@H](N[C@@H](c1ccc(-c2ccc(S(C)(=O)=O)nc2)cc1)C(F)(F)F)C(=O)NC1(C#N)CC1
Exercise: Lowest pIC50? choose 1 or 2 I would appreciate it if you answered with the label of your choice.
Solution: 2
(2: 8.59, 1: 9.52)

[1] CC(C)(F)C[C@H](N[C@@H](c1ccc(-c2ccc([C@H](O)C(F)F)cc2)cc1)C(F)(F)F)C(=O)NC1(C#N)CC1
[2] CC(C)(F)C[C@H](N[C@@H](c1ccc(-c2ccc(C3(O)CC3)cc2)cc1)C(F)(F)F)C(=O)NC1(C#N)CC1
Exercise: 1 or 2 : whose pIC50 is greater? I would appreciate it if you answered with the label of your choice.
Solution: 2

----------
Species: Homo sapiens
assay_comment: Selectivity ratio of IC50 for human cathepsin F to IC50 for humanized rabbit cathepsin K
measure: Ratio IC50

Some solved entries appear below for comparison.
{"compound_structure_string": "CC(C)(F)C[C@H](N[C@@H](c1ccc(-c2ccc(C3(C(N)=O)CC3)cc2)cc1)C(F)(F)F)C(=O)NC1(C#N)CC1", "Ratio IC50": 2380}
{"compound_structure_string": "C[C@H](C(N)=O)c1ccc(-c2ccc([C@H](N[C@@H](CC(C)(C)F)C(=O)NC3(C#N)CC3)C(F)(F)F)cc2)cc1", "Ratio IC50": 3590}
{"compound_structure_string": "CC(C)(F)C[C@H](N[C@@H](c1ccc(-c2ccc(C(C)(C)O)cc2)cc1)C(F)(F)F)C(=O)NC1(C#N)CC1", "Ratio IC50": 2410}
{"compound_structure_string": "CC(C)(F)C[C@H](N[C@@H](c1ccc(-c2ccc(S(C)(=O)=O)cc2)cc1)C(F)(F)F)C(=O)NC1(C#N)CC1", "Ratio IC50": 3230}
{"compound_structure_string": "CC(C)(F)C[C@H](N[C@@H](c1ccc(-c2ccc(C3(C(N)=O)CC3)cn2)cc1)C(F)(F)F)C(=O)NC1(C#N)CC1", "Ratio IC50": 3440}

[I] CC(C)(F)C[C@H](N[C@@H](c1ccc(-c2ccc(C3(O)CC3)cn2)cc1)C(F)(F)F)C(=O)NC1(C#N)CC1
[II] CC(C)(F)C[C@H](N[C@@H](c1ccc(-c2ccc(C3(O)CC3)cc2)cc1)C(F)(F)F)C(=O)NC1(C#N)CC1
Exercise: Lowest Ratio IC50? choose I or II I would appreciate it if you answered with the label of your choice.
Solution: II

----------
assay_comment: Oral bioavailability in rabbit
Format: ADME, organism-based, Oryctolagus cuniculus
cond: in vivo
measure: bioavailability (%)

[1] CC(C)(F)C[C@H](N[C@@H](c1ccc(-c2ccc([C@H](O)C(F)F)cc2)cc1)C(F)(F)F)C(=O)NC1(C#N)CC1
[2] CC(C)(F)C[C@H](N[C@@H](c1ccc(-c2ccc([C@@H](O)C(F)F)cc2)cc1)C(F)(F)F)C(=O)NC1(C#N)CC1
Exercise: 1 or 2 : whose bioavailability is greater? I would appreciate it if you answered with the label of your choice.
Solution: 1
(1: 132%, 2: 70%)

----------
assay_comment: Decrease in bone resorption assessed as corrected bone resorption measured as ratio of bone resorption IC50 x humanized rabbit cathepsin K IC50 to rabbit cathepsin K IC50 equation
Format: functional, tissue-based, Bone element
measure: IC50 (nM)

Some solved entries appear below for comparison.
{"compound_structure_string": "CC(C)(F)C[C@H](N[C@@H](c1ccc(-c2ccc([C@H](O)C(F)F)cc2)cc1)C(F)(F)F)C(=O)NC1(C#N)CC1", "measurement_units": "nM", "recorded_value": 7}
{"compound_structure_string": "Cc1csc(-c2ccc([C@H](N[C@@H](CC(C)(C)F)C(=O)NC3(C#N)CC3)C(F)(F)F)cc2)n1", "measurement_units": "nM", "recorded_value": 14}
{"compound_structure_string": "CC(C)(F)C[C@H](N[C@@H](c1ccc(-c2ccc(C3(O)CC3)cc2)cc1)C(F)(F)F)C(=O)NC1(C#N)CC1", "measurement_units": "nM", "recorded_value": 13}

[I] CC(C)(F)C[C@H](N[C@@H](c1ccc(-c2ccc(C3(C(N)=O)CC3)cc2)cc1)C(F)(F)F)C(=O)NC1(C#N)CC1
[II] CC(C)(F)C[C@H](N[C@@H](c1ccc(-c2ccc(S(C)(=O)=O)nc2)cc1)C(F)(F)F)C(=O)NC1(C#N)CC1
Exercise: Lowest IC50? choose I or II I would appreciate it if you answered with the label of your choice.
Solution: II
(II: 8 nM, I: 12 nM)

----------
Organism: Homo sapiens
assay_comment: Selectivity ratio of IC50 for human cathepsin B to IC50 for humanized rabbit cathepsin K
measure: Ratio IC50

{"compound_structure_string": "CC(C)(F)C[C@H](N[C@@H](c1ccc(-c2ccc(C3(C(N)=O)CC3)cn2)cc1)C(F)(F)F)C(=O)NC1(C#N)CC1", "recorded_value": 3920}

[1] CC(C)(F)C[C@H](N[C@@H](c1ccc(-c2ccc([C@@H](O)C(F)F)cc2)cc1)C(F)(F)F)C(=O)NC1(C#N)CC1
[2] CC(C)(F)C[C@H](N[C@@H](c1ccc(-c2ccc(C3(O)CC3)cn2)cc1)C(F)(F)F)C(=O)NC1(C#N)CC1
Exercise: Lowest Ratio IC50? choose 1 or 2 I would appreciate it if you answered with the label of your choice.
Solution: 1
